Target: FKBP12 (Homo sapiens)
Sequence (P62942 whole entry, species assumed): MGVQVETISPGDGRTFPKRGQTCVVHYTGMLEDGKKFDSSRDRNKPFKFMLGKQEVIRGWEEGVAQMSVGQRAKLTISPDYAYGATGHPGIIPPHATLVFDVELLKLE
# key: entry, value: Ki
# number only, unit nM dropped from output

COc1cc(CCCOC(=O)[C@@H]2CCCCN2C(=O)C(F)(F)c2cc(OC)c(OC)c(OC)c2)cc(OC)c1OC [Example 9] = 109

Task: Recorded Ki for COc1cc(C(F)(F)C(=O)N2CCC[C@H]2C(=O)OC(CCc2ccccc2)c2ccccc2)cc(OC)c1OC (stereo partly drawn) [Example 6] , please?
Result: 83

Task: Recorded Ki for COc1cc(C(F)(F)C(=O)N2CCC[C@H]2C(=O)OCCCc2cccnc2)cc(OC)c1OC [Example 2] , please?
Result: 877

###

Molecular target: FKBP12 (Homo sapiens)
Experiment: FKBP12 Rotamase Inhibition Assay
Type: biochemical
Conditions: read-out: Percent Inhibition at 10 μM (rotamase)
VALUE_KIND: inhibition at 10 µM (%)
# number only, unit % dropped from output

Task: Recorded inhibition at 10 µM for COc1cc(C(F)(F)C(=O)N2CCC[C@H]2C(=O)OC(CCCc2ccccc2)CCCc2cccnc2)cc(OC)c1OC (stereo partly shown) , please?
Result: 97

Task: Recorded inhibition at 10 µM for COc1cc(CCCOC(=O)[C@@H]2CCCCN2C(=O)C(F)(F)c2cc(OC)c(OC)c(OC)c2)cc(OC)c1OC , please?
Result: 99

Task: Recorded inhibition at 10 µM for COc1cc(C(F)(F)C(=O)N2CCC[C@H]2C(=O)OC(CCc2ccccc2)c2ccccc2)cc(OC)c1OC (stereo partly shown) , please?
Result: 100

Task: Recorded inhibition at 10 µM for COc1cc(C(F)(F)C(=O)N2CCC[C@H]2C(=O)OC(C)(C)CCc2ccccc2)cc(OC)c1OC , please?
Result: 70
